Target: RNA-directed RNA polymerase (Hepacivirus hominis)
Sequence (O39930 whole entry): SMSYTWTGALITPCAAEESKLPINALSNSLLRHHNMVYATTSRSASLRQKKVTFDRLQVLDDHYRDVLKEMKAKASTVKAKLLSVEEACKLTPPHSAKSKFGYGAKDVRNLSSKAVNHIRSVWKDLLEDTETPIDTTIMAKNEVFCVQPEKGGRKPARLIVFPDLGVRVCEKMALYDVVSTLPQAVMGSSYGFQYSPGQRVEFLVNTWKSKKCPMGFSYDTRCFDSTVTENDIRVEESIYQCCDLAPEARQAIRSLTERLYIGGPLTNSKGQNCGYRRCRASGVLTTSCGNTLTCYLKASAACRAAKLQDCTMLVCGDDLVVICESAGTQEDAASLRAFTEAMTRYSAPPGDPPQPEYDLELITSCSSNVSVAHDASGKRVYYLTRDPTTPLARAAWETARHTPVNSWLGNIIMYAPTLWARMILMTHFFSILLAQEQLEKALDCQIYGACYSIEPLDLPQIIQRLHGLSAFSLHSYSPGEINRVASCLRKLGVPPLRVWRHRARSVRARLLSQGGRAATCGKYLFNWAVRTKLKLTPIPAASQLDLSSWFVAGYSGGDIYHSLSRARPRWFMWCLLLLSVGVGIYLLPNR
Assay: Inhibition of HCV NS5B RNA dependent RNA polymerase
readout kind: IC50 (pM)
Value expressed in pM; do not type the unit.

Which IC50 value is on record for COC(=O)NC(C(=O)N1CCCC1c1ncc(-c2ccc3c(c2)OCn2c-3c(F)c3cc(-c4cnc(C5CCCN5C(=O)C(NC(=O)OC)C(C)C)[nH]4)ccc32)[nH]1)C(C)C (stereo unspecified) ?
1

----------
Biological target: Acetylcholinesterase (Bos taurus, UniProt P23795)
Sequence (P23795 whole entry): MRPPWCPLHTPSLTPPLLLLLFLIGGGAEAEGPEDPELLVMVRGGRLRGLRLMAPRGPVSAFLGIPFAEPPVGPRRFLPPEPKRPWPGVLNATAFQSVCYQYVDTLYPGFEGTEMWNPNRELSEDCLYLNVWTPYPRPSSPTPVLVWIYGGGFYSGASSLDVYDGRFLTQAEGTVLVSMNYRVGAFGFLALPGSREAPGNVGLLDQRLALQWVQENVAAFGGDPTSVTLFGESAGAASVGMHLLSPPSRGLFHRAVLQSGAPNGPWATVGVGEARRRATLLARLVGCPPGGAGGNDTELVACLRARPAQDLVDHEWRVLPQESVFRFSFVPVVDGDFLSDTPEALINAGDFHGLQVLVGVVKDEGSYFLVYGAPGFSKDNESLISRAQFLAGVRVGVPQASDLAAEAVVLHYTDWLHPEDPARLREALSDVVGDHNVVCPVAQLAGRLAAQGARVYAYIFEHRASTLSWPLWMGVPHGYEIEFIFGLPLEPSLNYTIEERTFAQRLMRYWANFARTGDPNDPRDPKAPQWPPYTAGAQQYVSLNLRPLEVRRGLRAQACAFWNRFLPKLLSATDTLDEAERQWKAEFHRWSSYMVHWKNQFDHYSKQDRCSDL
readout kind: Ki (µM)
State the answer as a number, implicitly in µM.

Any idea what Ki was measured for CC(=O)OC12C=CC(=O)N1c1ccccc1C(=O)O2 (stereo unspecified) ?
4.7

----------
Experiment: Inhibition of [33P]-ATP binding to Escherichia coli NR2 after 15 mins by liquid scintillation analysis
readout kind: pIC50
// returns pIC50 (minus log10 of molar concentration), number only

Need pIC50 of CCCc1c(O)cc2oc3cc(Cl)cn3c(=O)c2c1O , thanks.
4.70

----------
Target: Sodium channel protein type 9 subunit alpha (Rattus norvegicus, UniProt O08562)
Sequence (O08562 whole entry): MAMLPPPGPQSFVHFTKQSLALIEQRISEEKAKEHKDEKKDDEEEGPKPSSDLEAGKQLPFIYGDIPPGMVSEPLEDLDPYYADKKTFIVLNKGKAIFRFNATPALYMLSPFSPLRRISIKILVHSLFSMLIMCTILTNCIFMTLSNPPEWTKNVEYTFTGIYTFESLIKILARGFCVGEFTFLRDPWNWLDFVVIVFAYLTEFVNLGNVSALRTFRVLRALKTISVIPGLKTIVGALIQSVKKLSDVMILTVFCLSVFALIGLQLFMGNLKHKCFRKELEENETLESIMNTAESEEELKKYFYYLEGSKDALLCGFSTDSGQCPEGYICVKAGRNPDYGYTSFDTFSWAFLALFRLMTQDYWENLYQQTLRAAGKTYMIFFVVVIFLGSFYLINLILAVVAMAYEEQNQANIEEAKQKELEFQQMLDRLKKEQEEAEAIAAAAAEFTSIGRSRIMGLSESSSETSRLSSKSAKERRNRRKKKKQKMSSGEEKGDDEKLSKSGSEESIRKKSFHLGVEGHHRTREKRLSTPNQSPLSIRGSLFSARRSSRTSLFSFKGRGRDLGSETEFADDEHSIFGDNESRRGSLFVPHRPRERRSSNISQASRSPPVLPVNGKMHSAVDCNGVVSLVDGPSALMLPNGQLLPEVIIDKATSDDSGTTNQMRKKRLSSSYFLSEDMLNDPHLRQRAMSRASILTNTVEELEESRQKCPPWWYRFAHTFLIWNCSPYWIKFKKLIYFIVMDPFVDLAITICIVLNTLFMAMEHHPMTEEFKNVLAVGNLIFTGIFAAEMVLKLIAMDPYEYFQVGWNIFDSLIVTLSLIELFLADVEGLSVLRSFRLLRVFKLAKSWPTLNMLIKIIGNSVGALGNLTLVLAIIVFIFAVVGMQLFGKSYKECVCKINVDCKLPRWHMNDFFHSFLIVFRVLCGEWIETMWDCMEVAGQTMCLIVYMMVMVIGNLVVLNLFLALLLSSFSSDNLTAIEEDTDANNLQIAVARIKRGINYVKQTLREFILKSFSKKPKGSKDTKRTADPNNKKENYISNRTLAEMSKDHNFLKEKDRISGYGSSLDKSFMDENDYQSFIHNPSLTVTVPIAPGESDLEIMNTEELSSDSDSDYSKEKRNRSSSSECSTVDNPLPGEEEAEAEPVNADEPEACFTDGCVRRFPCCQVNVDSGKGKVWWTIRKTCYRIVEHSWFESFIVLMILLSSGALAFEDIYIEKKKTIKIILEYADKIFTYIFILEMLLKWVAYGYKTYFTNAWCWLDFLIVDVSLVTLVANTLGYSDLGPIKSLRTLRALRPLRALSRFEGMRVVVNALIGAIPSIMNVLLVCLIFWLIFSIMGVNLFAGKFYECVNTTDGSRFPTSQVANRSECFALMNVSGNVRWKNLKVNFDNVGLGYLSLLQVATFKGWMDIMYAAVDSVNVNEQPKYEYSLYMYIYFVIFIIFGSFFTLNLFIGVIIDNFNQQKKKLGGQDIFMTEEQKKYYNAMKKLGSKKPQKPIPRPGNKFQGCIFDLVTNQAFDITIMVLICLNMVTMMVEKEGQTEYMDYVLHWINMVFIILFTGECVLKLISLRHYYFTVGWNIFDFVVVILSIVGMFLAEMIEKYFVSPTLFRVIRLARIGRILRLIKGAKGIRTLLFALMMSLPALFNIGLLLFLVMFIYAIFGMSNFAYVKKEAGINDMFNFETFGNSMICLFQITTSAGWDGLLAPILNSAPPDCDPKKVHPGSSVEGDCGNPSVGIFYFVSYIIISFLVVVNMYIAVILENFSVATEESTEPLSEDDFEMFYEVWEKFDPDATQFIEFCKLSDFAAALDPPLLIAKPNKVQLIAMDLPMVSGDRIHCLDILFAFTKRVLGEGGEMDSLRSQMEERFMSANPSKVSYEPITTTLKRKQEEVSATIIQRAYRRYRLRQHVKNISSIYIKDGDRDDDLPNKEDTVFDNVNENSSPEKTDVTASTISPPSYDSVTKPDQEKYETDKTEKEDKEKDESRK
Assay: Inhibition of Nav1.7 in rat dorsal root ganglions at -60 mV holding potential by patch clamp assay
readout kind: IC50

Can you look up the measured IC50 of COc1c(O)cccc1C(=O)N1CCC2(CC1)Oc1ccccc1-n1c(C#N)ccc12 for me?
< 2000 nM

----------
Molecular target: Methionine aminopeptidase 2 (Homo sapiens, UniProt P50579)
Sequence (P50579 whole entry): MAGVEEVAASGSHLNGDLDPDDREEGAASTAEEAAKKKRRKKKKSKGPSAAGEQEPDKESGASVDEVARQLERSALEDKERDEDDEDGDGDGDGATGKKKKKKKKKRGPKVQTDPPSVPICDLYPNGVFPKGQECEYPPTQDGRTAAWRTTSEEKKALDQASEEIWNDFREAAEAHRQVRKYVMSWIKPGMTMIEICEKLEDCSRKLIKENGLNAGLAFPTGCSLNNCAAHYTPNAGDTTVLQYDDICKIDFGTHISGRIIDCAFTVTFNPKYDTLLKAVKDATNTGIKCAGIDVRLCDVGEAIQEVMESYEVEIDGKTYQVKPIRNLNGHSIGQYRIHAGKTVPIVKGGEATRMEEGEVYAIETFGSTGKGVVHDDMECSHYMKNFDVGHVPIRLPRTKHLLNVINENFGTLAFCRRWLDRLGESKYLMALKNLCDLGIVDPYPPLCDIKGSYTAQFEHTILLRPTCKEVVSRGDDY
Assay: Inhibition of human recombinant MetAP2 expressed in Sf9 insect cells using MAS as substrate after 30 mins by fluorometeric analysis
pIC50: −log10 of the molar value.
readout kind: pIC50

Fill in: pIC50 of CCN(CC)C/C=C\c1cc(F)ccc1S(=O)(=O)Nc1ccc2c(c1C(=O)O)OCc1cccn1-2 is ___
> 7.30

----------
Target: RNA-directed RNA polymerase (Hepacivirus hominis)
Assay: Inhibition of HCV genotype 1b NS5B RNA dependent RNA polymerase expressed in Escherichia coli BL21 (DE3) using biotinylated oligo-dT12 primer as substrate after 60 mins
Set-up: species or system Hepatitis C virus subtype 1b
readout kind: IC50

# lookup: IC50 of CN(C)S(=O)(=O)NC(=O)c1ccc2c(C3CCCCC3)c(-c3ccccc3)n3c2c1OCC3
< 10 µM
